measurement-notes: AUC(0 to infinity) in Sprague-Dawley rat at 20 mg/kg, IG measured upto 24 hrs by LC-MS analysis
Format: ADME, organism-based
Design: dose 20 mg/kg, time < 24 hrs, route ig
assay-context: in vivo, po
readout: AUC(0-inf) (ng·h/mL)
The answer is to be given in ng·h/mL; state only the numeric part.

-- ask Requested field: AUC(0-inf). Item: CCN1CCN(CCC(=O)Nc2ccc(S(=O)(=O)N(CC(N)=O)c3ccc(N(CC(N)=O)S(=O)(=O)c4ccc(OC)cc4)c4ccccc34)cc2)CC1
-- reply 3700

---

measurement-notes: MRT(0 to infinity) in Sprague-Dawley rat at 5 mg/kg, iv measured upto 24 hrs by LC-MS analysis
Assay type: ADME, organism-based
assay-context: in vivo
readout: MRT inf (h)
The answer is to be given in h; state only the numeric part.

-- ask Requested field: MRT inf. Item: CCN1CCN(CCC(=O)Nc2ccc(S(=O)(=O)N(CC(N)=O)c3ccc(N(CC(N)=O)S(=O)(=O)c4ccc(OC)cc4)c4ccccc34)cc2)CC1
-- reply 5.94

---

measurement-notes: MRT (0 to infinity) in Sprague-Dawley rat at 20 mg/kg, IG measured upto 24 hrs by LC-MS analysis
Format: ADME, organism-based
assay-context: in vivo, po
readout: MRT inf (h)
The answer is to be given in h; state only the numeric part.

-- ask Requested field: MRT inf. Item: CCN1CCN(CCC(=O)Nc2ccc(S(=O)(=O)N(CC(N)=O)c3ccc(N(CC(N)=O)S(=O)(=O)c4ccc(OC)cc4)c4ccccc34)cc2)CC1
-- reply 14

---

measurement-notes: Tmax in Sprague-Dawley rat at 20 mg/kg, IG measured for 24 hrs by LC-MS analysis
Format: ADME, organism-based
assay-context: in vivo, po
readout: Tmax (h)
The answer is to be given in h; state only the numeric part.

-- ask Requested field: Tmax. Item: CCN1CCN(CCC(=O)Nc2ccc(S(=O)(=O)N(CC(N)=O)c3ccc(N(CC(N)=O)S(=O)(=O)c4ccc(OC)cc4)c4ccccc34)cc2)CC1
-- reply 1.38

---

System: Peritoneal macrophage
measurement-notes: Cytotoxicity against mouse peritoneal macrophages assessed as reduction in cell viability measured after 24 hrs by Cell Titer-Blue assay
Assay type: functional
Provide the reported CC50 of each item.

-- ask Notebook: pull reported CC50 for Peritoneal macrophage, entry COc1ccc(S(=O)(=O)N(CC(N)=O)c2ccc(N(CC(N)=O)S(=O)(=O)c3ccc(NC(=O)CCN4CCC(C)CC4)cc3)c3ccccc23)cc1
-- reply > 100 µM

-- ask Notebook: pull reported CC50 for Peritoneal macrophage, entry COc1ccc(S(=O)(=O)N(CC(N)=O)c2ccc(N(CC(N)=O)S(=O)(=O)c3ccc(NC(=O)CCCN4CCOCC4)cc3)c3ccccc23)cc1
-- reply > 100 µM

-- ask Notebook: pull reported CC50 for Peritoneal macrophage, entry COc1ccc(S(=O)(=O)N(CC(N)=O)c2ccc(N(CC(N)=O)S(=O)(=O)c3ccc(NC(=O)CN4CCOCC4)cc3)c3ccccc23)cc1
-- reply > 100 µM

---

measurement-notes: Cmax in Sprague-Dawley rat at 20 mg/kg, IG measured upto 24 hrs by LC-MS analysis
Assay type: ADME, organism-based
Parameters: dose 20 mg/kg, time < 24 hrs, route ig
assay-context: in vivo, po
readout: Cmax (ng/mL)
The answer is to be given in ng/mL; state only the numeric part.

-- ask Requested field: Cmax. Item: CCN1CCN(CCC(=O)Nc2ccc(S(=O)(=O)N(CC(N)=O)c3ccc(N(CC(N)=O)S(=O)(=O)c4ccc(OC)cc4)c4ccccc34)cc2)CC1
-- reply 708

---

measurement-notes: Antiinflammatory activity against LPS-induced mouse peritoneal macrophage assessed as inhibition of TNF alpha level after 4 hrs by ELISA method
Assay type: functional, cell-based
readout: pEC50
Remember the convention: pEC50 equals -log10 of concentration in molar.

-- ask Requested field: pEC50. Item: CCN1CCN(CCC(=O)Nc2ccc(S(=O)(=O)N(CC(N)=O)c3ccc(N(CC(N)=O)S(=O)(=O)c4ccc(OC)cc4)c4ccccc34)cc2)CC1
-- reply 5.94

---

measurement-notes: Aqueous solubility of the compound in PBS at pH 7.4 after 24 hrs by HPLC-UV analysis
Type: physicochemical
Provide the reported solubility at 24 h of each item.
The answer is to be given in µg/mL; state only the numeric part.

-- ask Requested field: solubility at 24 h. Item: COc1ccc(S(=O)(=O)N(CC(N)=O)c2ccc(N(CC(N)=O)S(=O)(=O)c3ccc(N)cc3)c3ccccc23)cc1
-- reply 33.6

-- ask Requested field: solubility at 24 h. Item: CCN1CCN(CCC(=O)Nc2ccc(S(=O)(=O)N(CC(N)=O)c3ccc(N(CC(N)=O)S(=O)(=O)c4ccc(OC)cc4)c4ccccc34)cc2)CC1
-- reply 49.3

-- ask Requested field: solubility at 24 h. Item: CCN1CCN(CCC(=O)Nc2ccc(S(=O)(=O)N(CC(N)=O)c3ccc(N(CC(N)=O)S(=O)(=O)c4ccc(OC)cc4)c4ccccc34)cc2)CC1.O=C(O)/C=C\C(=O)O
-- reply 80.5

-- ask Requested field: solubility at 24 h. Item: Br.CCN1CCN(CCC(=O)Nc2ccc(S(=O)(=O)N(CC(N)=O)c3ccc(N(CC(N)=O)S(=O)(=O)c4ccc(OC)cc4)c4ccccc34)cc2)CC1
-- reply 130

-- ask Requested field: solubility at 24 h. Item: CCN1CCN(CCC(=O)Nc2ccc(S(=O)(=O)N(CC(N)=O)c3ccc(N(CC(N)=O)S(=O)(=O)c4ccc(OC)cc4)c4ccccc34)cc2)CC1.O=C(O)CC(O)(CC(=O)O)C(=O)O
-- reply 72.5

-- ask Requested field: solubility at 24 h. Item: CCN1CCN(CCC(=O)Nc2ccc(S(=O)(=O)N(CC(N)=O)c3ccc(N(CC(N)=O)S(=O)(=O)c4ccc(OC)cc4)c4ccccc34)cc2)CC1.O=C(O)C(F)(F)F
-- reply 105

-- ask Requested field: solubility at 24 h. Item: Br.Br.COc1ccc(S(=O)(=O)N(CC(N)=O)c2ccc(N(CC(N)=O)S(=O)(=O)c3ccc(N)cc3)c3ccccc23)cc1
-- reply 40.7

-- ask Requested field: solubility at 24 h. Item: CC(=O)O.CCN1CCN(CCC(=O)Nc2ccc(S(=O)(=O)N(CC(N)=O)c3ccc(N(CC(N)=O)S(=O)(=O)c4ccc(OC)cc4)c4ccccc34)cc2)CC1
-- reply 77.9

-- ask Requested field: solubility at 24 h. Item: CCN1CCN(CCC(=O)Nc2ccc(S(=O)(=O)N(CC(N)=O)c3ccc(N(CC(N)=O)S(=O)(=O)c4ccc(OC)cc4)c4ccccc34)cc2)CC1.Cl
-- reply 47.7

-- ask Requested field: solubility at 24 h. Item: CCN1CCN(CCC(=O)Nc2ccc(S(=O)(=O)N(CC(N)=O)c3ccc(N(CC(N)=O)S(=O)(=O)c4ccc(OC)cc4)c4ccccc34)cc2)CC1.O=C(O)CCC(=O)O
-- reply 76.9

---

measurement-notes: AUC (0 to 24 hrs) in Sprague-Dawley rat at 5 mg/kg, iv measured upto 24 hrs by LC-MS analysis
Type: ADME, organism-based
Set-up: time < 24 hrs, dose 5 mg/kg, route iv
assay-context: in vivo
readout: AUC(0-t) at 24 h (ng·h/mL)
The answer is to be given in ng·h/mL; state only the numeric part.

-- ask Requested field: AUC(0-t) at 24 h. Item: CCN1CCN(CCC(=O)Nc2ccc(S(=O)(=O)N(CC(N)=O)c3ccc(N(CC(N)=O)S(=O)(=O)c4ccc(OC)cc4)c4ccccc34)cc2)CC1
-- reply 4560

---

Provide the reported Kd of each item.
target-entity: Keap1/Nrf2 (Homo sapiens)
Sequence (Q16236 whole entry, the tested form may be a part): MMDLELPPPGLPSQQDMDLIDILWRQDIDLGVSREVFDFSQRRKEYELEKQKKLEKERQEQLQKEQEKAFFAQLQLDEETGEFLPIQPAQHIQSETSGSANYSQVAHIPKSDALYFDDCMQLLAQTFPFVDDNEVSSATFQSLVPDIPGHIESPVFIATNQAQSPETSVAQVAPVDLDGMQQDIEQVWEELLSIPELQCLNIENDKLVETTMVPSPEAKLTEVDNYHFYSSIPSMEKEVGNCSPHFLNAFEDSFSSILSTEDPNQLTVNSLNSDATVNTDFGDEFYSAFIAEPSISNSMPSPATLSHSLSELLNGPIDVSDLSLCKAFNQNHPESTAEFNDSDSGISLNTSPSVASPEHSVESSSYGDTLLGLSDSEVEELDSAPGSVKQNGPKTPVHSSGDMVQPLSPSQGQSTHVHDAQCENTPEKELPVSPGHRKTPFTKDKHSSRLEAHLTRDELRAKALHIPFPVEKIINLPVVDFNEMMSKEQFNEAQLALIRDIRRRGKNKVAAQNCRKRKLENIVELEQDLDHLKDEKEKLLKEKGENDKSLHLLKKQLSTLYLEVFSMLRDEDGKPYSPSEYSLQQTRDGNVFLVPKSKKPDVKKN
Sequence (Q14145 whole entry, the tested form may be a part): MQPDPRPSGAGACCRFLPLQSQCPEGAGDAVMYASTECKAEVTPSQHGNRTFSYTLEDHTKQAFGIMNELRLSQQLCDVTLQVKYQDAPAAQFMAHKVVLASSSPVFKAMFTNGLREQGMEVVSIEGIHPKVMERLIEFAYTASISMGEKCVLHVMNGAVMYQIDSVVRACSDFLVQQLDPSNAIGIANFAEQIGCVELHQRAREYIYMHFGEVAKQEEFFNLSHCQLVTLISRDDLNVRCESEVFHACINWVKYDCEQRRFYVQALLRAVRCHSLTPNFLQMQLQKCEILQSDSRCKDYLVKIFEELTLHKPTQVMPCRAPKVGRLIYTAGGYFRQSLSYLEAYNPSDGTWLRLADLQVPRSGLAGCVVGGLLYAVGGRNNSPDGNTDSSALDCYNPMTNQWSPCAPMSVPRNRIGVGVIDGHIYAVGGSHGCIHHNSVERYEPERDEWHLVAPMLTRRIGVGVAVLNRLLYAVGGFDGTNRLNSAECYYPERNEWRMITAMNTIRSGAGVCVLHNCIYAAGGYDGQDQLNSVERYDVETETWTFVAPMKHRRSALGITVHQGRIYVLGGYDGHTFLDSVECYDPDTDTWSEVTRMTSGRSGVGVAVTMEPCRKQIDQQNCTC
measurement-notes: Inhibition of recombinant N-terminal His6-tagged human Keap1-Nrf2 (322 to 609 residues) (unknown origin) protein-protein interaction expressed in Escherichia coli (DE3) incubated for 60 mins by fluorescence anisotropy assay
The answer is to be given in nM; state only the numeric part.

-- ask Requested field: Kd. Item: COc1ccc(S(=O)(=O)N(CC(N)=O)c2ccc(N(CC(N)=O)S(=O)(=O)c3ccc(NC(=O)CN4CCOCC4)cc3)c3ccccc23)cc1
-- reply 1350

-- ask Requested field: Kd. Item: COc1ccc(S(=O)(=O)N(CC(N)=O)c2ccc(N(CC(N)=O)S(=O)(=O)c3ccc(NC(=O)CCCN4CCN(C(C)C)CC4)cc3)c3ccccc23)cc1
-- reply 1480

-- ask Requested field: Kd. Item: COc1ccc(S(=O)(=O)N(CC(N)=O)c2ccc(N(CC(N)=O)S(=O)(=O)c3ccc(NC(=O)CCCN4CCOCC4)cc3)c3ccccc23)cc1
-- reply 1080

-- ask Requested field: Kd. Item: COc1ccc(S(=O)(=O)N(CC(N)=O)c2ccc(N(CC(N)=O)S(=O)(=O)c3ccc(NC(=O)CCN4CCCCC4)cc3)c3ccccc23)cc1
-- reply 1420

-- ask Requested field: Kd. Item: COc1ccc(S(=O)(=O)N(CC(N)=O)c2ccc(N(CC(N)=O)S(=O)(=O)c3ccc(NC(=O)CCN4CCOCC4)cc3)c3ccccc23)cc1
-- reply 1030

-- ask Requested field: Kd. Item: COc1ccc(S(=O)(=O)N(CC(N)=O)c2ccc(N(CC(N)=O)S(=O)(=O)c3ccc(NC(=O)CN4CCN(C(C)C)CC4)cc3)c3ccccc23)cc1
-- reply 1450
